target: human recombinant Aurora B (Homo sapiens, UniProt Q96GD4); construct: purchased ThermoFisher PR9210B; test: Aurora B Kinase Biochemical Assay (ADP-Glo); details: selectivity ratio; Aurora B 10 nM, 114 μM ATP
Sequence (Q96GD4 whole entry): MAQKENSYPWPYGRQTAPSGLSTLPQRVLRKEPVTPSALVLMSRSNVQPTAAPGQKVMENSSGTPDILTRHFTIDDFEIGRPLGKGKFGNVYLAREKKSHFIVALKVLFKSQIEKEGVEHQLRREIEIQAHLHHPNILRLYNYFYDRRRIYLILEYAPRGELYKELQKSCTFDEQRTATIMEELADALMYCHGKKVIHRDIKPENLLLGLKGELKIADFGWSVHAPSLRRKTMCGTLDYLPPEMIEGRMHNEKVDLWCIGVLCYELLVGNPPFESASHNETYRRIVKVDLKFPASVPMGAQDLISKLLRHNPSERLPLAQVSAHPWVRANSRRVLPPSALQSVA
Assign labels as follows, please: class 1 for [Aurora B IC50 (nM)]/[PLK4 IC50 (nM)] below 700; class 0 for [Aurora B IC50 (nM)]/[PLK4 IC50 (nM)] equal to or exceeding 700.

Take a look at these entries with their results.
COc1ccc2c(c1)[C@]1(C[C@H]1c1ccc3c(Nc4cc5c(cc4OC)S(=O)(=O)C=C5)n[nH]c3c1)C(=O)N2 ... class 1
CCOc1ccc(-c2nccs2)cc1Nc1n[nH]c2cc([C@@H]3C[C@@]34C(=O)Nc3ccc(OC)cc34)ccc12 ... class 0
COc1ccc2c(c1)[C@]1(C[C@H]1c1ccc3c(Nc4nc(-c5cncnc5)ncc4OC)n[nH]c3c1)C(=O)N2 ... class 1
COc1ccc2c(c1)[C@]1(C[C@H]1c1ccc3c(Nc4cc(-c5cnco5)ccc4OC)n[nH]c3c1)C(=O)N2 ... class 1
COc1ccc2c(c1)[C@]1(C[C@H]1c1ccc3c(Nc4nc(-c5cnn(C)c5)cnc4OC)n[nH]c3c1)C(=O)N2 ... class 1
CCOc1ccc(-c2cnn(C)c2)cc1Nc1n[nH]c2cc([C@@H]3C[C@@]34C(=O)Nc3ccc(OC)cc34)ccc12 ... class 0
COc1ccc2c(c1)[C@]1(C[C@H]1c1ccc3c(Nc4cc(-c5cnn(C)c5)ncc4OC)n[nH]c3c1)C(=O)N2 ... class 0
COc1ccc2c(c1)[C@]1(C[C@H]1c1ccc3c(Nc4ccc(S(C)(=O)=O)cc4OC)n[nH]c3c1)C(=O)N2 ... class 1

Query: In the record for `COc1ccc2c(c1)[C@]1(C[C@H]1c1ccc3c(Nc4cc(-c5ccon5)ccc4OC)n[nH]c3c1)C(=O)N2` , is [Aurora B IC50 (nM)]/[PLK4 IC50 (nM)] less than 700?
Response: class 0

Query: In the record for `COc1ccc2c(c1)[C@]1(C[C@H]1c1ccc3c(Nc4cc(-c5cnn(CC(F)F)c5)cnc4OC)n[nH]c3c1)C(=O)N2` , is [Aurora B IC50 (nM)]/[PLK4 IC50 (nM)] less than 700?
Response: class 1

Query: In the record for `CCOc1cc2c(ccc[n+]2[O-])cc1Nc1n[nH]c2cc([C@@H]3C[C@@]34C(=O)Nc3ccc(OC)cc34)ccc12` , is [Aurora B IC50 (nM)]/[PLK4 IC50 (nM)] less than 700?
Response: class 0

Query: In the record for `CCOc1cnc(-c2nccs2)cc1Nc1n[nH]c2cc([C@@H]3C[C@@]34C(=O)Nc3ccc(OC)cc34)ccc12` , is [Aurora B IC50 (nM)]/[PLK4 IC50 (nM)] less than 700?
Response: class 0

Query: In the record for `COc1ccc2c(c1)[C@]1(C[C@H]1c1ccc3c(Nc4cc(-c5cocn5)cnc4OC)n[nH]c3c1)C(=O)N2` , is [Aurora B IC50 (nM)]/[PLK4 IC50 (nM)] less than 700?
Response: class 1

Query: In the record for `COc1ccc2c(c1)[C@]1(C[C@H]1c1ccc3c(Nc4nc(-c5ncco5)ccc4OC)n[nH]c3c1)C(=O)N2` , is [Aurora B IC50 (nM)]/[PLK4 IC50 (nM)] less than 700?
Response: class 1

Query: In the record for `COc1ccc2c(c1)[C@]1(C[C@H]1c1ccc3c(Nc4cc(-c5ncco5)ccc4OC)n[nH]c3c1)C(=O)N2` , is [Aurora B IC50 (nM)]/[PLK4 IC50 (nM)] less than 700?
Response: class 0

Query: In the record for `CCOc1ncc(-c2nccs2)cc1Nc1n[nH]c2cc([C@@H]3C[C@@]34C(=O)Nc3ccc(OC)cc34)ccc12` , is [Aurora B IC50 (nM)]/[PLK4 IC50 (nM)] less than 700?
Response: class 0
